Ref: patent US20240182536A1

- EXPERIMENTAL SYSTEM: T1, human IL-18R alpha/beta pair (IL-18Rab) (human, UniProt Q13478 19-329; O95256 20-356)
- T1 construct: also called hu IL-18Rab
- T1 sequence (looked up) 1: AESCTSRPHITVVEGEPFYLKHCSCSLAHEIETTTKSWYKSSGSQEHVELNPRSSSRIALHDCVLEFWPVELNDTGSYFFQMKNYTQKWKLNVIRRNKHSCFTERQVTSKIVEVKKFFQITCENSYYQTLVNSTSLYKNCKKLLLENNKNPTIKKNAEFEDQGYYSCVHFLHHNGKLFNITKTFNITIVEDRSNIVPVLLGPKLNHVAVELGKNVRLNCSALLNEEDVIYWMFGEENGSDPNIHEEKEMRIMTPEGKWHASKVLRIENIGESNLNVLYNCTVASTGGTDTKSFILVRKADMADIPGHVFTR
- T1 sequence (looked up) 2: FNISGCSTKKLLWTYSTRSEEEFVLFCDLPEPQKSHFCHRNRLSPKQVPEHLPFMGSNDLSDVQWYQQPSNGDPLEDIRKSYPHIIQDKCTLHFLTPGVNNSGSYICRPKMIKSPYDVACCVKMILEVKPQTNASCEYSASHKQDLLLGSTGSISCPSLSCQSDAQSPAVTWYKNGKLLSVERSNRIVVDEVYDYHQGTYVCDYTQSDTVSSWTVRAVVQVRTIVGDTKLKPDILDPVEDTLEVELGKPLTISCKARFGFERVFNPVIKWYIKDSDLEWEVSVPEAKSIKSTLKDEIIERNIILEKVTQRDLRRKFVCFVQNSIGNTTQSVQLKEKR
- PROTOCOL: Octet BLI
OBSERVATION TYPE: Kd (nM)
Express your answer in nM, writing the number without its unit.

Recorded results for 2 binders are shown here.
BINDER	Kd, nM
Comparator 1 (human IL-18 variant M51K, K53S, Q56L, P57A, M60L, S105D, D110S, N111R) (ligand) YFGKLESKLSVIRNLNDQVLFIDQGNRPLFEDMTDSDCRDNAPRTIFIISKYSDSLARGLAVTISVKCEKISTLSCENKIISFKEMNPPDNIKDTKSDIIFFQRDVPGHSRKMQFESSSYEGYFLACEKERDLFKLILKKEDELGDRSIMFTVQNED	0.43
IL-18 variant G3V, M60K (ligand) YFVKLESKLSVIRNLNDQVLFIDQGNRPLFEDMTDSDMRDNAPRTIFIISMYKDSQPRGKAVTISVKSEKISTLSSENKIISFKEMNPPDNIKDTKSDIIFFQRSVPGHDNKMQFESSSYEGYFLASEKERDLFKLILKKEDELGDRSIMFTVQNED	0.07

Query: Please look up its Kd: IL-18 variant G3T, M60K (ligand) YFTKLESKLSVIRNLNDQVLFIDQGNRPLFEDMTDSDMRDNAPRTIFIISMYKDSQPRGKAVTISVKSEKISTLSSENKIISFKEMNPPDNIKDTKSDIIFFQRSVPGHDNKMQFESSSYEGYFLASEKERDLFKLILKKEDELGDRSIMFTVQNED
Response: 0.02

Query: Another: IL-18 variant G3T, E6K, K53A (ligand, also called G3T, K53A, E6K) YFTKLKSKLSVIRNLNDQVLFIDQGNRPLFEDMTDSDMRDNAPRTIFIISMYADSQPRGMAVTISVKSEKISTLSSENKIISFKEMNPPDNIKDTKSDIIFFQRSVPGHDNKMQFESSSYEGYFLASEKERDLFKLILKKEDELGDRSIMFTVQNED
Response: 0.32
